Target: HLA-A*29:02
Assay: IEDB peptide-MHC binding, purified MHC/competitive/radioactivity; filed as Kd, often an IC50 or EC50 that approximates it; bounds were set here for any values at or beyond the usual limits of such assays
Conditions: source organism: Mammarenavirus choriomeningitidis
measuredEndpoint: pKd
Would you please state pKd, meaning minus log10 of the concentration in mol/L, as a bare number?

[in] Please look at KTGESSRSY and tell me its recorded pKd on HLA-A*29:02.
[out] 4.78

* * *

Target: HLA-B*44:02
Test: IEDB peptide-MHC binding, purified MHC/direct/fluorescence; filed as Kd, often an IC50 or EC50 that approximates it; bounds were set here for any values at or beyond the usual limits of such assays
Details: source organism: Mammarenavirus juninense
measuredEndpoint: Kd

[in] Identify measured Kd corresponding to DLKLVDVKL
[out] ≥ 20 µM

* * *

Biological target: HLA-B*44:03
Assay: IEDB peptide-MHC binding, purified MHC/competitive/radioactivity; filed as Kd, often an IC50 or EC50 that approximates it; bounds were set here for any values at or beyond the usual limits of such assays
Conditions: source organism: Mammarenavirus choriomeningitidis
measuredEndpoint: pKd
Would you please state pKd, meaning minus log10 of the concentration in mol/L, as a bare number?

[in] Identify measured pKd corresponding to ADYLSCSHF
[out] 5.56

* * *

Molecular target: HLA-A*24:03
Test: IEDB peptide-MHC binding, purified MHC/direct/fluorescence; filed as Kd, often an IC50 or EC50 that approximates it; bounds were set here for any values at or beyond the usual limits of such assays
Settings: source organism: Pseudomonas aeruginosa UCBPP-PA14
measuredEndpoint: Kd

[in] Identify measured Kd corresponding to RTGTRLLGR
[out] ≥ 20 µM

* * *

Molecular target: HLA-B*57:01
Assay: IEDB peptide-MHC binding, purified MHC/competitive/radioactivity; filed as Kd, often an IC50 or EC50 that approximates it; bounds were set here for any values at or beyond the usual limits of such assays
Details: source organism: Dengue virus 1 Brazil/97-11/1997
measuredEndpoint: Kd (nM)
I only need the number, in nM, no unit after it.

TTSQKTTWLP 446

Proceeding to the next sequence to report its Kd.
[in] Identify measured Kd corresponding to GTSGSPIVNR
[out] 104

* * *

Molecular target: HLA-C*06:02
Test: IEDB peptide-MHC binding, purified MHC/direct/fluorescence; filed as Kd, often an IC50 or EC50 that approximates it; bounds were set here for any values at or beyond the usual limits of such assays
Details: source organism: Encephalitozoon cuniculi GB-M1
measuredEndpoint: Kd (µM)
I only need the number, in µM, no unit after it.

[in] Identify measured Kd corresponding to YRFNLRRKM
[out] 0.01

* * *

Biological target: HLA-A*02:01
Assay: IEDB peptide-MHC binding, purified MHC/direct/fluorescence; filed as Kd, often an IC50 or EC50 that approximates it; bounds were set here for any values at or beyond the usual limits of such assays
Conditions: source organism: Haemophilus influenzae
measuredEndpoint: Kd
Express the reported value numerically, then name its unit.

ALLGERPII 7760 nM

[in] Identify measured Kd corresponding to AMVPLVMVI
[out] 435 nM

[in] Identify measured Kd corresponding to ALGYTTEEI
[out] 338 nM

* * *

Biological target: HLA-B*27:05
Test: IEDB peptide-MHC binding, purified MHC/direct/fluorescence; filed as Kd, often an IC50 or EC50 that approximates it; bounds were set here for any values at or beyond the usual limits of such assays
Details: source organism: Giardia intestinalis
measuredEndpoint: Kd

DYAMHGTVF ≥ 20 µM

Proceeding to the next sequence to report its Kd.
[in] Identify measured Kd corresponding to GYTPGQQFY
[out] ≥ 20 µM

* * *

Molecular target: HLA-A*69:01
Experiment: IEDB peptide-MHC binding, purified MHC/direct/fluorescence; filed as Kd, often an IC50 or EC50 that approximates it; bounds were set here for any values at or beyond the usual limits of such assays
Settings: source organism: Reston ebolavirus - Reston
measuredEndpoint: Kd

[in] Identify measured Kd corresponding to SKLRALLTL
[out] ≥ 20 µM

* * *

Target: HLA-A*02:02
Assay: IEDB peptide-MHC binding, purified MHC/competitive/radioactivity; filed as Kd, often an IC50 or EC50 that approximates it; bounds were set here for any values at or beyond the usual limits of such assays
Settings: source organism: Mammarenavirus brazilense
measuredEndpoint: pKd
Would you please state pKd, meaning minus log10 of the concentration in mol/L, as a bare number?

AINIALIAV 6.12

[in] Identify measured pKd corresponding to YNYSLSAAV
[out] 7.10

* * *

Target: HLA-A*24:02
Assay: IEDB peptide-MHC binding, purified MHC/competitive/radioactivity; filed as Kd, often an IC50 or EC50 that approximates it; bounds were set here for any values at or beyond the usual limits of such assays
Conditions: source organism: Mammarenavirus lassaense
measuredEndpoint: Kd

[in] Please look at AGFTAGLSY and tell me its recorded Kd on HLA-A*24:02.
[out] ≥ 77.5 µM

* * *

Target: HLA-B*58:01
Assay: IEDB peptide-MHC binding, purified MHC/competitive/fluorescence; filed as Kd, often an IC50 or EC50 that approximates it; bounds were set here for any values at or beyond the usual limits of such assays
Conditions: source organism: Escherichia coli
measuredEndpoint: pKd
Would you please state pKd, meaning minus log10 of the concentration in mol/L, as a bare number?

[in] Identify measured pKd corresponding to RAMACSALI
[out] 7.89

* * *

Target: HLA-B*39:01
Experiment: IEDB peptide-MHC binding, purified MHC/direct/fluorescence; filed as Kd, often an IC50 or EC50 that approximates it; bounds were set here for any values at or beyond the usual limits of such assays
Details: source organism: Influenza A virus H3N2
measuredEndpoint: Kd

[in] Identify measured Kd corresponding to EEIRRIWRQ
[out] ≥ 20 µM

* * *

Molecular target: HLA-B*46:01
Test: IEDB peptide-MHC binding, purified MHC/direct/fluorescence; filed as Kd, often an IC50 or EC50 that approximates it; bounds were set here for any values at or beyond the usual limits of such assays
Conditions: source organism: Escherichia coli O157:H7 str. EC869
measuredEndpoint: Kd

[in] Identify measured Kd corresponding to YGSWFGLIY
[out] ≥ 20 µM

* * *

Molecular target: HLA-B*58:01
Assay: IEDB peptide-MHC binding, purified MHC/direct/fluorescence; filed as Kd, often an IC50 or EC50 that approximates it; bounds were set here for any values at or beyond the usual limits of such assays
Conditions: source organism: Pseudomonas aeruginosa
pKd: −log10 of the molar value.
measuredEndpoint: pKd

[in] Identify measured pKd corresponding to DLPPAIAAE
[out] ≤ 4.70

* * *

Target: HLA-A*33:01
Assay: IEDB peptide-MHC binding, purified MHC/competitive/radioactivity; filed as Kd, often an IC50 or EC50 that approximates it; bounds were set here for any values at or beyond the usual limits of such assays
Settings: source organism: Triticum aestivum
measuredEndpoint: Kd

[in] Please look at VSFQQPQQQY and tell me its recorded Kd on HLA-A*33:01.
[out] ≥ 70 µM

* * *

Target: HLA-B*27:05
Test: IEDB peptide-MHC binding, purified MHC/direct/fluorescence; filed as Kd, often an IC50 or EC50 that approximates it; bounds were set here for any values at or beyond the usual limits of such assays
Details: source organism: Pseudomonas aeruginosa UCBPP-PA14
measuredEndpoint: Kd

[in] Identify measured Kd corresponding to RTGTRLLGR
[out] ≥ 20 µM

* * *

Target: HLA-B*57:01
Experiment: IEDB peptide-MHC binding, purified MHC/direct/fluorescence; filed as Kd, often an IC50 or EC50 that approximates it; bounds were set here for any values at or beyond the usual limits of such assays
Settings: source organism: Lyssavirus rabies
measuredEndpoint: Kd

[in] Identify measured Kd corresponding to YLDNVGVHI
[out] ≥ 20 µM

* * *

Target: HLA-A*31:01
Experiment: IEDB peptide-MHC binding, purified MHC/direct/fluorescence; filed as Kd, often an IC50 or EC50 that approximates it; bounds were set here for any values at or beyond the usual limits of such assays
Conditions: source organism: Vibrio vulnificus YJ016
pKd: −log10 of the molar value.
measuredEndpoint: pKd

[in] Please look at KRFYQTVGF and tell me its recorded pKd on HLA-A*31:01.
[out] ≤ 4.70

* * *

Biological target: HLA-B*08:01
Assay: IEDB peptide-MHC binding, purified MHC/competitive/radioactivity; filed as Kd, often an IC50 or EC50 that approximates it; bounds were set here for any values at or beyond the usual limits of such assays
Details: source organism: Dengue virus 2 Peru/IQT2913/1996
measuredEndpoint: pKd
Would you please state pKd, meaning minus log10 of the concentration in mol/L, as a bare number?

[in] Identify measured pKd corresponding to HAQRIETWIL
[out] 5.94

* * *

Molecular target: HLA-B*54:01
Assay: IEDB peptide-MHC binding, purified MHC/competitive/radioactivity; filed as Kd, often an IC50 or EC50 that approximates it; bounds were set here for any values at or beyond the usual limits of such assays
Details: source organism: Mammarenavirus whitewaterense
measuredEndpoint: Kd (µM)
I only need the number, in µM, no unit after it.

[in] Identify measured Kd corresponding to NPTNISKCF
[out] 3.47
